B1: Twister Ribozyme (parent)
chain: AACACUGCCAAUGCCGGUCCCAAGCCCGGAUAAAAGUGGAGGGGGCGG

# Variants of: B1
# test.method.notes: self-cleavage, relative activity (ratio to wild type); higher = more cleavage; co-transcriptional
Param threshold (0.4) applies to self-cleavage; output yes (1) when value >= threshold, no (0) when value < threshold.

In: Identify whether the reported self-cleavage of the following variant is 0.4 or greater: AACACUGCCAAUGCCGGUCACAAGCCCGGAUAAAAGUGGAGGAGGCGG [C20A G43A]
Out: no (0)

In: Similarly, AACACUGCCAAUGCCGGUCCCAUGCCCGGGUAAAAGUGGAGGGGGCGG [A23U A30G] ?
Out: yes (1)

In: Similarly, AACAGUGCCAAUGCCGGUCCCAAGCCCGAAUAAAAGUGGAGGGGGCGG [C5G G29A] ?
Out: yes (1)

In: Similarly, AACACUGCCAAUACCGGUCCCAAGCCCGGAUAAAAGUGUAGGGGGCGG [G13A G39U] ?
Out: no (0)
